Data origin: patent US6143492A

- tested.target: UniProtKB P33261
- experimental.details: Kinetics of fluorogenic substrates with CYP 2C19
- Assay type: biochemical
- measurement.conditions: CYP 2C19
quantity.kind: kcat (s⁻¹)

[
  {
    "molecule": "N#Cc1cc2ccc(OCc3ccccc3)cc2oc1=O [BCC, 7-Benzyloxy-3-cyanocoumarin, reference compound]",
    "tested.target": "UniProtKB P33261",
    "unit.symbol": "s⁻¹",
    "number": 0.0017
  },
  {
    "molecule": "CCN(CC)Cc1cc(=O)oc2cc(OC)ccc12 [DMMC]",
    "tested.target": "UniProtKB P33261",
    "unit.symbol": "s⁻¹",
    "number": 0.0067
  },
  {
    "molecule": "CCCCCCCCOCOc1ccc2nc3ccc(=O)cc-3oc2c1 [OOMR, Octyloxymethylresorufin]",
    "tested.target": "UniProtKB P33261",
    "unit.symbol": "s⁻¹",
    "number": 0.00283
  },
  {
    "molecule": "CCOc1ccc2cc(C#N)c(=O)oc2c1 [3CEC, 3-Cyano-7-ethoxycoumarin, reference compound]",
    "tested.target": "UniProtKB P33261",
    "unit.symbol": "s⁻¹",
    "number": 0.0283
  }
]

----------
- tested.target: CYP 3A4 (Homo sapiens)
- Construct: NADPH regenerating system
- experimental.details: Kinetics of fluorogenic substrates with CYP 3A4
- Type: biochemical
- measurement.conditions: CYP 3A4
Recorded kcat/Km, one value per entry.
quantity.kind: kcat/Km

[
  {
    "molecule": "COCOc1ccc2nc3ccc(=O)cc-3oc2c1",
    "tested.target": "CYP 3A4 (Homo sapiens)",
    "result": "167 M⁻¹ s⁻¹"
  },
  {
    "molecule": "O=c1ccc2nc3ccc(OCc4ccccc4)cc3oc-2c1 [BR, Benzylresorufin, reference compound]",
    "tested.target": "CYP 3A4 (Homo sapiens)",
    "result": "377 M⁻¹ s⁻¹"
  },
  {
    "molecule": "CCCCCCCCOCOc1ccc2cc(C#N)c(=O)oc2c1",
    "tested.target": "CYP 3A4 (Homo sapiens)",
    "result": "4506 M⁻¹ s⁻¹"
  },
  {
    "molecule": "CC1(C)C2=C(Cl)C(=O)C(Cl)=CC2=Nc2ccc(OCOCc3ccccc3)cc21",
    "tested.target": "CYP 3A4 (Homo sapiens)",
    "result": "14286 M⁻¹ s⁻¹"
  },
  {
    "molecule": "CCCCCCCCOCOc1ccc2nc3ccc(=O)cc-3oc2c1",
    "tested.target": "CYP 3A4 (Homo sapiens)",
    "result": "7857 M⁻¹ s⁻¹"
  },
  {
    "molecule": "O=c1ccc2nc3ccc(OCOCc4ccccc4)cc3oc-2c1",
    "tested.target": "CYP 3A4 (Homo sapiens)",
    "result": "13095 M⁻¹ s⁻¹"
  },
  {
    "molecule": "O=C(OCc1ccccc1)c1c2oc3cc(OCc4ccccc4)ccc3nc-2ccc1=O",
    "tested.target": "CYP 3A4 (Homo sapiens)",
    "result": "5123 M⁻¹ s⁻¹"
  },
  {
    "molecule": "COc1ccc(COc2ccc3c(C(F)(F)F)cc(=O)oc3c2)cc1",
    "tested.target": "CYP 3A4 (Homo sapiens)",
    "result": "897 M⁻¹ s⁻¹"
  }
]

----------
- tested.target: CYP 2C9 (Homo sapiens)
- Sequence (P11712 whole entry): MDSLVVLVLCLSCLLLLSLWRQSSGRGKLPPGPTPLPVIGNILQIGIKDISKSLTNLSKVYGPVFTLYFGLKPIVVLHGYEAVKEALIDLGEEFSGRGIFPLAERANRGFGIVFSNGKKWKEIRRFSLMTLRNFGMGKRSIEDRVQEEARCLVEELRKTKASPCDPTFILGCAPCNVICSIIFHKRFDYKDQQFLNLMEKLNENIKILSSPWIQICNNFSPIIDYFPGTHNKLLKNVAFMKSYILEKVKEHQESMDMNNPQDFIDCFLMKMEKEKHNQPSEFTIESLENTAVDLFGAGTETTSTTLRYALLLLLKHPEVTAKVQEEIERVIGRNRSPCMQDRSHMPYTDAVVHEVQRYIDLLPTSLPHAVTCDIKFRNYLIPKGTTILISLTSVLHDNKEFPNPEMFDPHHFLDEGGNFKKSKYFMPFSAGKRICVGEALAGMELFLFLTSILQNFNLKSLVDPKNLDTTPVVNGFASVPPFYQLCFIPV
- experimental.details: Kinetics of fluorogenic substrates with CYP 2C9
- Type: biochemical
- measurement.conditions: CYP 2C9, substrate 10 uM
Classify by measured v (10 uM), turnover rate at 10 μM: met if it is equal to or exceeds 0.04 min⁻¹, not met if it is smaller.

[
  {
    "molecule": "COCOc1ccc2c(C(F)(F)F)cc(=O)oc2c1",
    "discrete.label": "met"
  },
  {
    "molecule": "COc1ccc2c(C(F)(F)F)cc(=O)oc2c1 [MFC, 7-Methoxy-4-trifluoromethylcoumarin, reference compound]",
    "discrete.label": "not met"
  },
  {
    "molecule": "N#Cc1cc2ccc(OCc3ccccc3)cc2oc1=O [BCC, 7-Benzyloxy-3-cyanocoumarin, reference compound]",
    "discrete.label": "not met"
  },
  {
    "molecule": "COc1ccc(COc2ccc3nc4ccc(=O)cc-4oc3c2)cc1",
    "discrete.label": "not met"
  },
  {
    "molecule": "COCOc1ccc2cc(C#N)c(=O)oc2c1",
    "discrete.label": "met"
  },
  {
    "molecule": "CCCCCCCCOCOc1ccc2nc3ccc(=O)cc-3oc2c1",
    "discrete.label": "met"
  },
  {
    "molecule": "N#Cc1cc2ccc(OCOCc3ccccc3)cc2oc1=O",
    "discrete.label": "met"
  }
]

----------
- tested.target: CYP 3A4 (Homo sapiens, UniProt P08684)
- Construct: NADPH regenerating system
- Sequence (P08684 whole entry): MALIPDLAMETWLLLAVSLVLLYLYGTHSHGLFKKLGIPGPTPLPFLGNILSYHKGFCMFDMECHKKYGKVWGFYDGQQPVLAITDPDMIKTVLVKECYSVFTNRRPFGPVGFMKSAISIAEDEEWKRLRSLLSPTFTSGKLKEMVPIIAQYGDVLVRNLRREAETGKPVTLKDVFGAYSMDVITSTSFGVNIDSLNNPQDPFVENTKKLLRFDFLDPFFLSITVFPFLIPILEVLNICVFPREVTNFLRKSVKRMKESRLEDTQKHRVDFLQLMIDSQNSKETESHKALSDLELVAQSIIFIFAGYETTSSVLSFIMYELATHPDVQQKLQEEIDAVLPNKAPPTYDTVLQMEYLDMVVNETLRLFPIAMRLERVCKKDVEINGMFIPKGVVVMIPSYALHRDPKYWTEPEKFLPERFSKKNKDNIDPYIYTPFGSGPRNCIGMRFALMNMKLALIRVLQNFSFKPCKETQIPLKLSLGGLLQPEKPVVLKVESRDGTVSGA
- experimental.details: Kinetics of fluorogenic substrates with CYP 3A4
- Assay type: biochemical
- measurement.conditions: CYP 3A4
quantity.kind: kcat (s⁻¹)

[
  {
    "compound": "CC1(C)C2=C(Cl)C(=O)C(Cl)=CC2=Nc2ccc(OCOCc3ccccc3)cc21",
    "quantity.kind": "kcat",
    "unit.symbol": "s⁻¹",
    "number": 0.1
  },
  {
    "compound": "O=c1cc(C(F)(F)F)c2ccc(OCOCc3ccccc3)cc2o1",
    "quantity.kind": "kcat",
    "unit.symbol": "s⁻¹",
    "number": 0.0667
  },
  {
    "compound": "COc1ccc(COc2ccc3c(C(F)(F)F)cc(=O)oc3c2)cc1",
    "quantity.kind": "kcat",
    "unit.symbol": "s⁻¹",
    "number": 0.012
  },
  {
    "compound": "COCOc1ccc2nc3ccc(=O)cc-3oc2c1",
    "quantity.kind": "kcat",
    "unit.symbol": "s⁻¹",
    "number": 0.001
  },
  {
    "compound": "O=c1ccc2nc3ccc(OCOCc4ccccc4)cc3oc-2c1",
    "quantity.kind": "kcat",
    "unit.symbol": "s⁻¹",
    "number": 0.0183
  },
  {
    "compound": "CCCCCCCCOCOc1ccc2nc3ccc(=O)cc-3oc2c1",
    "quantity.kind": "kcat",
    "unit.symbol": "s⁻¹",
    "number": 0.011
  },
  {
    "compound": "O=c1ccc2nc3ccc(OCc4ccccc4)cc3oc-2c1 [BR, Benzylresorufin, reference compound]",
    "quantity.kind": "kcat",
    "unit.symbol": "s⁻¹",
    "number": 0.0017
  },
  {
    "compound": "CCOCOc1ccc2nc3ccc(=O)cc-3oc2c1",
    "quantity.kind": "kcat",
    "unit.symbol": "s⁻¹",
    "number": 0.0017
  },
  {
    "compound": "O=C(OCc1ccccc1)c1c2oc3cc(OCc4ccccc4)ccc3nc-2ccc1=O",
    "quantity.kind": "kcat",
    "unit.symbol": "s⁻¹",
    "number": 0.0138
  },
  {
    "compound": "CCCCCCCCOCOc1ccc2cc(C#N)c(=O)oc2c1",
    "quantity.kind": "kcat",
    "unit.symbol": "s⁻¹",
    "number": 0.0198
  }
]

----------
- tested.target: CYP 2B6 (Homo sapiens)
- Sequence (P20813 whole entry): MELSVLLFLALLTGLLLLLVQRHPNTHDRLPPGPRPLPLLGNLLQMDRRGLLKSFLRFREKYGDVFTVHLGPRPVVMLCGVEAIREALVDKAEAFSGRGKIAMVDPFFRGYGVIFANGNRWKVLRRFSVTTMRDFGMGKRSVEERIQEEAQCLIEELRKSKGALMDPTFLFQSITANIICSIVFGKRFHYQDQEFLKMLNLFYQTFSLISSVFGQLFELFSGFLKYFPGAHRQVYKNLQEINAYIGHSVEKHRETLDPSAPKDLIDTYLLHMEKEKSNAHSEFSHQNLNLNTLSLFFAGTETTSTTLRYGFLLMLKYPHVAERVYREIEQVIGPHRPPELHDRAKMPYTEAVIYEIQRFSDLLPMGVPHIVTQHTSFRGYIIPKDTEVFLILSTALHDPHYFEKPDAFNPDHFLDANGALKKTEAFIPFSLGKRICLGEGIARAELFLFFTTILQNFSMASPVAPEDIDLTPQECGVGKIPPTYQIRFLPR
Classify by measured v (10 uM), turnover rate at 10 μM: satisfied if it is equal to or exceeds 0.7 min⁻¹, not satisfied if it is smaller.

[
  {
    "compound": "N#Cc1cc2ccc(OCOCc3ccccc3)cc2oc1=O",
    "tested.target": "CYP 2B6 (Homo sapiens)",
    "discrete.label": "satisfied"
  },
  {
    "compound": "N#Cc1cc2ccc(OCc3ccccc3)cc2oc1=O [BCC, 7-Benzyloxy-3-cyanocoumarin, reference compound]",
    "tested.target": "CYP 2B6 (Homo sapiens)",
    "discrete.label": "not satisfied"
  },
  {
    "compound": "COc1ccc2c(C(F)(F)F)cc(=O)oc2c1 [MFC, 7-Methoxy-4-trifluoromethylcoumarin, reference compound]",
    "tested.target": "CYP 2B6 (Homo sapiens)",
    "discrete.label": "satisfied"
  },
  {
    "compound": "COc1ccc(COc2ccc3nc4ccc(=O)cc-4oc3c2)cc1",
    "tested.target": "CYP 2B6 (Homo sapiens)",
    "discrete.label": "not satisfied"
  }
]

----------
- tested.target: CYP 2C19 (Homo sapiens)
- Sequence (P33261 whole entry): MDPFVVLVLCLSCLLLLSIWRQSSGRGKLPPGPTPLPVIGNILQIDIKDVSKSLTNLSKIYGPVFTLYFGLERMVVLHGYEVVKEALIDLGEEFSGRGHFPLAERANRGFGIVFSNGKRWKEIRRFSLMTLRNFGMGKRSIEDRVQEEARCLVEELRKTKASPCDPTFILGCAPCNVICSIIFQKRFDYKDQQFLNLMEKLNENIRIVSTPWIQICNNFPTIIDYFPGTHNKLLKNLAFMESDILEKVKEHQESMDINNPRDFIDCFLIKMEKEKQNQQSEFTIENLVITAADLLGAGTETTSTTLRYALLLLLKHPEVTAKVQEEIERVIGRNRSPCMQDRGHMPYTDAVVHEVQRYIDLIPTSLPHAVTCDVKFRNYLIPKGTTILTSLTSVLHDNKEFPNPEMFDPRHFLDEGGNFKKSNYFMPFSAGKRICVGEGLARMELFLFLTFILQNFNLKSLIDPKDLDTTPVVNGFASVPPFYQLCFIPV
- experimental.details: Kinetics of fluorogenic substrates with CYP 2C19
- Type: biochemical
- measurement.conditions: CYP 2C19
quantity.kind: kcat/Km (M⁻¹ s⁻¹)

[
  {
    "compound": "COCOc1ccc2cc(C#N)c(=O)oc2c1",
    "number": 2604
  },
  {
    "compound": "CCOCOc1ccc2cc(C#N)c(=O)oc2c1",
    "number": 5723
  },
  {
    "compound": "N#Cc1cc2ccc(OCOCc3ccccc3)cc2oc1=O",
    "number": 2262
  },
  {
    "compound": "CC(C)Oc1ccc2cc(C#N)c(=O)oc2c1",
    "number": 568
  },
  {
    "compound": "N#Cc1cc2ccc(OCc3ccccc3)cc2oc1=O [BCC, 7-Benzyloxy-3-cyanocoumarin, reference compound]",
    "number": 234
  }
]
